- method-notes: in vitro
- measurement-setup: human, Caco-2, pH 7.4
Here the recorded efflux ratio at 90 min, 10 μM is given for each entry.

> print(dat)
                                   compound  recorded.measurement
1  Cc1cccnc1[C@@H]1CCC[C@H](c2nc3ccccn3c2CN2CCN(C(C)C)CC2)N1C [Compound I-39]              10 to 30
2  Cc1cccnc1[C@@H]1CCC[C@H](c2cn3c(N4CCN(C)CC4)cccc3n2)N1C [Compound I-1]             0.1 to 10
3  Cc1cccnc1[C@@H]1CCC[C@H](c2cn3c(N4CCN5CCCC5C4)cccc3n2)N1C (stereo partly drawn) [Compound I-77]             0.1 to 10
4  Clc1cccnc1[C@@H]1CCC[C@H](c2nc3cccc(N4CCNC5(CC5)C4)n3c2Cl)N1 [Compound I-167]             0.1 to 10
5  CN1CCN(c2cccc3nc([C@H]4CCC[C@@H](c5ncccc5Cl)N4)cn23)CC1 (single isomer, unassigned) [Compound I-188]             0.1 to 10

Now look at this one.
Query (compound): Cc1cccnc1[C@@H]1CCC[C@H](c2nc3cccc(N4CCN(C)CC4)n3c2C)N1C [Compound I-86] ; field requested: efflux ratio at 90 min, 10 μM
10 to 30

----------
- method-notes: Pharmacokinetics after intravenous or oral administration to dogs
- Assay type: in vivo
- measurement-setup: male, beagle, plasma; dog, IV: 1 mg/kg
property-name: clearance (mL/min/kg)
Give the quantity in mL/min/kg, number only.

I'd like to know its clearance. The compound in question is CN1CCN(c2cccc3nc([C@H]4CCC[C@@H](c5ncccc5Cl)N4)cn23)CC1 (single isomer, unassigned)
19.8

----------
- method-notes: Mouse brain uptake assay, 0-24 h, 4 time points
- Type: in vivo
- measurement-setup: male, CD1, brain and plasma, Mouse, 3 mg/kg IV, 4 time points
property-name: Kp

> print(dat)
                                   compound  recorded.measurement
1  Cc1cccnc1[C@@H]1CCC[C@H](c2cn3c(-c4cccnc4)cccc3n2)N1C [Compound I-6]                  3.05
2  Cc1cccnc1[C@@H]1CCC[C@H](c2nc3cccc(N4CCN(C)CC4)n3c2Cl)N1 [Compound I-146]                  5.29
3  CCOCc1c([C@H]2CCC[C@@H](c3ncccc3Cl)N2C)nc2cccc(N3CCN(C)CC3)n12 [Compound I-117]                  21.8

(A) CN1CCN(c2cccc3nc([C@H]4CCC[C@@H](c5ncccc5Cl)N4C)c(Cl)n23)CC1 [Compound I-115]
(B) Cc1cccnc1[C@@H]1CCC[C@H](c2cn3c(N4CCN(C)CC4)cccc3n2)N1 [Compound I-187]
(C) Cc1c([C@@H]2CCC[C@H](c3ncccc3Cl)N2)nc2cccc(N3CCN(C)CC3)n12 (stereo in doubt) [Compound I-193]
Sequence the entries by Kp, beginning with the highest number. Would you mind listing the labels in the order asked for?
A, C, B

----------
- method-notes: in vitro
- measurement-setup: human, Caco-2, pH 7.4
In this section we review reported Papp B→A at 90 min, 10 μM values for a set of compounds.

> print(dat)
                                   compound              property.name  recorded.measurement
1  CN1CC2CCC(C1)N2c1cccc2nc([C@H]3CCC[C@@H](c4ncccc4Cl)N3)cn12 [Compound I-182]  Papp B→A at 90 min, 10 μM   10 to 30 ×10⁻⁶ cm/s
2  Cc1cccnc1[C@@H]1CCC[C@H](c2nc3cccc(N4CCN(C5CC5)CC4)n3c2CO)N1C [Compound I-112]  Papp B→A at 90 min, 10 μM   10 to 30 ×10⁻⁶ cm/s
3  CN1C2CCC1CN(c1cccc3nc([C@H]4CCC[C@@H](c5ncccc5Cl)N4C)c(CO)n13)C2 [Compound I-135]  Papp B→A at 90 min, 10 μM   10 to 30 ×10⁻⁶ cm/s

Please give the measured Papp B→A at 90 min, 10 μM for this compound: Cc1cccnc1[C@@H]1CCC[C@H](c2cn3c(N4CCNCC4)cccc3n2)N1C [Compound I-4]
10 to 30 ×10⁻⁶ cm/s

# query: Papp B→A at 90 min, 10 μM of entry Cc1cccnc1[C@H]1CCC[C@@H](c2nc3ccccn3c2CCCN(C)C)N1C (stereo in doubt) [Compound I-28]
10 to 30 ×10⁻⁶ cm/s

For CCOCc1c([C@H]2CCC[C@@H](c3ncccc3C)N2C)nc2cccc(N3CCN(C(C)C)CC3)n12 [Compound I-57] , what is its reported Papp B→A at 90 min, 10 μM?
10 to 30 ×10⁻⁶ cm/s

Look up Papp B→A at 90 min, 10 μM: Clc1cccnc1[C@@H]1CCC[C@H](c2nc3cccc(N4CCNC5(CC5)C4)n3c2Cl)N1 [Compound I-167]
0.1 to 10 ×10⁻⁶ cm/s

Fill in the blank: the reported Papp B→A at 90 min, 10 μM of Cc1cccnc1[C@@H]1CCC[C@H](c2nc3ccccn3c2CN2CCN(C)CC2)N1C [Compound I-38] is ____.
> 30 ×10⁻⁶ cm/s

----------
- method-notes: in vitro
- measurement-setup: human, Caco-2, pH 7.4
property-name: Papp B→A at 90 min, 10 μM

> print(dat)
                                   compound              property.name  recorded.measurement
1  Cc1cccnc1[C@@H]1CCC[C@H](c2cn3c(N4CCN(C5CC5)CC4)cccc3n2)N1C [Compound I-66]  Papp B→A at 90 min, 10 μM   10 to 30 ×10⁻⁶ cm/s

Look up Papp B→A at 90 min, 10 μM: Cc1cccnc1[C@@H]1CCC[C@H](c2nc3cccc(N4CCN(C(C)C)CC4)n3c2CO)N1C [Compound I-50]
10 to 30 ×10⁻⁶ cm/s

Endpoint output: Papp B→A at 90 min, 10 μM of Cc1cccnc1[C@@H]1CCC[C@H](c2cn3c(N4CCN(C)CC4)cccc3n2)N1 [Compound I-187] . Value?
10 to 30 ×10⁻⁶ cm/s

Item Cc1cccnc1[C@@H]1CCC[C@H](c2cn3c(N4CCN(C5COC5)CC4)cccc3n2)N1C [Compound I-52] has what recorded Papp B→A at 90 min, 10 μM?
> 30 ×10⁻⁶ cm/s

----------
- method-notes: Mouse brain uptake assay, 0-24 h, 4 time points
- Format: in vivo
- measurement-setup: male, CD1, brain and plasma, Mouse, 3 mg/kg IV, 4 time points
property-name: Kp uu

Here is how some compounds turned out for Kp uu.
> print(dat)
                                   compound  recorded.measurement
1  Cc1cccnc1[C@@H]1CCC[C@H](c2nc3cccc(N4CCN(C)CC4)n3c2Cl)N1                   0.6
2  CN1CCN(c2cccc3nc([C@H]4CCC[C@@H](c5ncccc5Cl)N4C)c(Cl)n23)CC1                  3.68

(P) CCOCc1c([C@H]2CCC[C@@H](c3ncccc3Cl)N2C)nc2cccc(N3CCN(C)CC3)n12
(Q) Cc1cccnc1[C@@H]1CCC[C@H](c2cn3c(N4CCN(C)CC4)cccc3n2)N1
(R) Cc1c([C@@H]2CCC[C@H](c3ncccc3Cl)N2)nc2cccc(N3CCN(C)CC3)n12 (stereo in doubt)
Order each entry by recorded Kp uu, climbing from the minimum. Reply with the item labels sorted in the order that was asked for.
Q, R, P
(Q: 0.22, R: 0.54, P: 3.35)

----------
Known pIC50 of a selection of compounds
- target-system: CXCR-4 transfected U87 cell line (U87.CXCR4) (Homo sapiens (Human), UniProt P61073)
- Sequence (P61073 whole entry): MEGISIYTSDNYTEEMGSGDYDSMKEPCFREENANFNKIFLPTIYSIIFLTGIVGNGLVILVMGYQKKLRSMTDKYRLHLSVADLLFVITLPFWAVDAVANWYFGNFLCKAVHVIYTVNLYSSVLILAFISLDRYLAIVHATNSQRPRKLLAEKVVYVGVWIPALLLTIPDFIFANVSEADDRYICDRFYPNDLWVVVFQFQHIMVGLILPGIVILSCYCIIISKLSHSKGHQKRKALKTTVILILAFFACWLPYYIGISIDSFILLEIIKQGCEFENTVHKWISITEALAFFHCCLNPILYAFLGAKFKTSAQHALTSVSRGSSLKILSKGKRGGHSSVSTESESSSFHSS
- method-notes: Intracellular CXCL-12-induced calcium mobilization assay (FLIPR)
- measurement-setup: U87.CXCR4 cells, CXCL-12 25-50 ng/mL; read-out: IC50 CXCL-12 Ca2+ flux U87.CXCR4+
pIC50: −log10 of the molar value.

> print(dat)
                               entry.smiles  recorded.measurement
1  Cc1cccnc1[C@@H]1CCC[C@H](c2nc3ccccn3c2N2CCN(C)CC2)N1                ≤ 6.00
2  Cc1cccnc1[C@@H]1CCC[C@H](c2cn3c(N4C5CCC4CN(C)C5)cccc3n2)N1C         7.00 to 11.00
3  Cc1cccnc1[C@@H]1CCC[C@H](c2cn3c(N4CCN(C)CC4)cccc3n2)N1CCO         7.00 to 11.00
4  Clc1cccnc1[C@@H]1CCC[C@H](c2cn3c(N4CCNC5(CC5)C4)cccc3n2)N1                ≤ 6.00
5  CCN1CCN(c2cccc3nc([C@H]4CCC[C@@H](c5ncccc5Cl)N4C)c(Cl)n23)CC1          6.00 to 7.00
6  Cc1cccnc1[C@@H]1CCC[C@H](c2nc3cccc(N4CCN(C)CC4)n3c2COC2CC2)N1C         7.00 to 11.00

Shifting focus to the compound that follows.
So what's the measured pIC50 for this one? Cc1cccnc1[C@@H]1CCC[C@H](c2nc3cccc(N4CCN(C(C)C)CC4)n3c2CO)N1C
7.00 to 11.00
